The reported measurements were obtained from patent US20180099931A1.

Target Of Assay: F508delCFTR (Homo sapiens, UniProt P13569, DEL508-508)
Construct: expressed in transfected cells; host or cells: CFBE41o- human lung-derived epithelial cells (CFBE4lo-F508delCFTR-HRP), doxycycline-inducible
Sequence (P13569 with tags, fused parts or gaps DEL508-508): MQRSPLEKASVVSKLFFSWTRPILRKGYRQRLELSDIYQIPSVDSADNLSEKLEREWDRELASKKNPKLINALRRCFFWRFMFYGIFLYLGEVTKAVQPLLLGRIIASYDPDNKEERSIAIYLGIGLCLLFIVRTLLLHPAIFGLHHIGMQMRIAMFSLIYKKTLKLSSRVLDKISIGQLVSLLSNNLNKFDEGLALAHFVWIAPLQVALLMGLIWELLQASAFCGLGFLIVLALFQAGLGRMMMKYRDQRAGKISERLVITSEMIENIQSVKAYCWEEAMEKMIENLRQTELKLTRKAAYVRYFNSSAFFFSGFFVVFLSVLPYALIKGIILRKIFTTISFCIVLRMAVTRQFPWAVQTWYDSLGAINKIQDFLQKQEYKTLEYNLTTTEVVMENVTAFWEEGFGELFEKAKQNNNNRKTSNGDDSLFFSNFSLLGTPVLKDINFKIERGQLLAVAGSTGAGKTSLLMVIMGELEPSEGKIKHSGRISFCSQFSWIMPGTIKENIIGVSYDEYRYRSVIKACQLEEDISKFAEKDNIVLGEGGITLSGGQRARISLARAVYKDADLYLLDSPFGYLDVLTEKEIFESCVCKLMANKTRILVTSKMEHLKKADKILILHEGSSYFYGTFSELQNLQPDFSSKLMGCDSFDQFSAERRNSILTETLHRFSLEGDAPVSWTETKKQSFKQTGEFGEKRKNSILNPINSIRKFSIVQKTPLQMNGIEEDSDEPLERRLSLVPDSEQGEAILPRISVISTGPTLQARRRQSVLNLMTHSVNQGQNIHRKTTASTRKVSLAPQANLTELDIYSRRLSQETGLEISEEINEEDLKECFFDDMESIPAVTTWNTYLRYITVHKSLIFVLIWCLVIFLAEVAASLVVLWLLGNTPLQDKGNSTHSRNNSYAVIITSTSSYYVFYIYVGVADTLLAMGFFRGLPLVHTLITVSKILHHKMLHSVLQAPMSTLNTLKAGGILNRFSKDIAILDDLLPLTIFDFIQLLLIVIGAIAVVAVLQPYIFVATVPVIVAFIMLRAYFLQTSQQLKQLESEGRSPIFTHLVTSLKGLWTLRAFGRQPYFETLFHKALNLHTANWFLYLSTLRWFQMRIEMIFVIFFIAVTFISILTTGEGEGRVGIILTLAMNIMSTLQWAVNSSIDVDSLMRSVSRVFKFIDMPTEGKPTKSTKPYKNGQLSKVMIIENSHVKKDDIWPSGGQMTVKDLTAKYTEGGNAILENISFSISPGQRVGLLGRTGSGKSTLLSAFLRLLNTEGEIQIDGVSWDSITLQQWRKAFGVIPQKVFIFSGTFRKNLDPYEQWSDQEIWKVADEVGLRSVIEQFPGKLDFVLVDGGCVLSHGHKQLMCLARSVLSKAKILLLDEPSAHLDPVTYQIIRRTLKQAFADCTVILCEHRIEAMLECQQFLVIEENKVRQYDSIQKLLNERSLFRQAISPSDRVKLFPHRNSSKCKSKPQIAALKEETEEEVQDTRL
Assay Overview: Cell Surface Expression-Horse Radish Peroxidase (CSE-HRP) Assay;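 note: co-corrector and positive control are both the same reference corrector at 2 µM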
Assay type: cell-based
Stated Conditions: with co-corrector (2 μM); maximum at any tested concentration, normalized to on-plate positive control
Measured Property: Maximum % activity (with co-corrector)

CC(C)(C)[C@H]1[C@H](Nc2cc(C#N)cc(Cl)n2)[C@H](c2ccccc2)N(C(=O)C2CCCCC2)[C@@H]1C(=O)O [III-146]
++ (≥150 and <350)
COc1cc(C(F)(F)F)ccc1CN[C@H]1[C@H](C(C)(C)C)[C@@H](C(=O)O)N(C(=O)C2C3CCCC32)[C@H]1c1ccccc1 (stereo partly drawn) [Example 65]
+++ (≥350)
COc1ccc(C(C)C)cc1CN[C@H]1[C@H](C(C)(C)C)[C@@H](C(=O)O)N(C(=O)C2CCCCC2)[C@H]1c1ccccc1F [Example I-111]
+++ (≥350)
COc1nc2ccccc2cc1CN[C@H]1[C@H](C(C)(C)C)[C@@H](C(=O)O)N(C(=O)[C@@H]2CCCO2)[C@H]1c1ccccc1C(C)C [Example 100]
+++ (≥350)
COc1ccc(C(C)(C)C)cc1CN[C@H]1[C@H](C(C)(C)C)[C@@H](C(=O)O)N(C(=O)C2CCOC2C(C)C)[C@H]1c1ccccc1 (stereo partly drawn) [Example I-218]
+++ (≥350)

Please find the next molecule below.
Suppose we examine the molecule COc1ccc(C(C)(C)C)cc1CN[C@H]1[C@H](C(C)(C)C)[C@@H](C(=O)O)N(C(=O)OC(C)C)[C@H]1c1cccnc1OC(F)F [Example I-227] ; what Maximum % activity (with co-corrector) value has been reported?
+++ (≥350)
